Biological target: T1, HLA-A*11:01 (MHC-I molecules on the surfaces of T2 cells) (human)
T1 construct: It only names the antibody against 'the corresponding HLA typing (HLA-A*11:01)'; also called HLA molecules
Assay: T2 cell MHC-I stabilisation assay, flow cytometry with FITC anti-HLA-A*11:01 antibody
readout-type: FI (fluorescence index)

binder	readout-type	observed-result
RTIEQLTLK (Synthesized mutant neoantigen peptide; also called high-frequency mutant polypeptide) [RTIEQLTLK polypeptide (ARHGEF11; SEQ ID NO: 8)]	FI (fluorescence index)	1.57
TTAPFLSGK (Synthesized mutant neoantigen peptide; also called high-frequency mutant polypeptide) [TTAPFLSGK polypeptide (CTNNB1; SEQ ID NO: 9)]	FI (fluorescence index)	1.02
VVVGAGDVGK (Synthesized mutant KRAS neoantigen peptide; also called high-frequency mutant polypeptide) [VVVGAGDVGK polypeptide (KRAS; SEQ ID NO: 15)]	FI (fluorescence index)	1.66
STIDESPIFK (Synthesized mutant neoantigen peptide; also called high-frequency mutant polypeptide) [STIDESPIFK polypeptide (GLCE; SEQ ID NO: 7)]	FI (fluorescence index)	4.09
